Cited source: ChEMBL document CHEMBL3399971

- assay_comment: Cytotoxicity against mouse BV2 cells by CytoTox96 non-radioactive cytotoxicity assay
- Type: cell-based, BV-2
- condition_description: BV2 cells, read-out: MNCC
measurement_name: MNTC (mM)
Only the number, expressed in mM, is required.

cpd_smiles	MNTC [mM]
COc1ccc(C(=O)Nc2nc3ccccc3[nH]2)cc1	1
O=C(/C=C/c1ccncc1)Nc1nc2ccccc2[nH]1	1
O=C(Nc1nc2ccccc2[nH]1)C1CCCCC1	1
O=C(Nc1nc2ccccc2[nH]1)c1ccncc1	1
O=C(Nc1nc2ccccc2[nH]1)c1cc(C(F)(F)F)ccc1C(F)(F)F	0.06

Problem: Fill in the blank: the reported MNTC of `O=C(Nc1nc2ccccc2[nH]1)c1cccc(Cl)c1` is ____.
Result: 1

Problem: Fill in the blank: the reported MNTC of `O=C(Nc1nc2ccccc2[nH]1)c1ccc(Cl)c(Cl)c1` is ____.
Result: 0.1

Problem: Fill in the blank: the reported MNTC of `COc1cccc(C(=O)Nc2nc3ccccc3[nH]2)c1` is ____.
Result: 1

Problem: Fill in the blank: the reported MNTC of `O=C(Nc1nc2ccccc2[nH]1)c1ccc([N+](=O)[O-])cc1` is ____.
Result: 0.3

Problem: Fill in the blank: the reported MNTC of `CN(C(=O)c1cccc(Cl)c1)c1nc2ccccc2[nH]1` is ____.
Result: 1

Problem: Fill in the blank: the reported MNTC of `CN(C)c1cccc(C(=O)Nc2nc3ccccc3[nH]2)c1` is ____.
Result: 0.3

Problem: Fill in the blank: the reported MNTC of `O=C(Nc1nc2ccccc2[nH]1)c1ccccc1C(F)(F)F` is ____.
Result: 1

Problem: Fill in the blank: the reported MNTC of `O=C(Nc1nc2ccccc2[nH]1)c1ccccc1F` is ____.
Result: 1

---

- measurement_target: Metabotropic glutamate receptor 5 (Mus musculus)
- Sequence (Q3UVX5 whole entry): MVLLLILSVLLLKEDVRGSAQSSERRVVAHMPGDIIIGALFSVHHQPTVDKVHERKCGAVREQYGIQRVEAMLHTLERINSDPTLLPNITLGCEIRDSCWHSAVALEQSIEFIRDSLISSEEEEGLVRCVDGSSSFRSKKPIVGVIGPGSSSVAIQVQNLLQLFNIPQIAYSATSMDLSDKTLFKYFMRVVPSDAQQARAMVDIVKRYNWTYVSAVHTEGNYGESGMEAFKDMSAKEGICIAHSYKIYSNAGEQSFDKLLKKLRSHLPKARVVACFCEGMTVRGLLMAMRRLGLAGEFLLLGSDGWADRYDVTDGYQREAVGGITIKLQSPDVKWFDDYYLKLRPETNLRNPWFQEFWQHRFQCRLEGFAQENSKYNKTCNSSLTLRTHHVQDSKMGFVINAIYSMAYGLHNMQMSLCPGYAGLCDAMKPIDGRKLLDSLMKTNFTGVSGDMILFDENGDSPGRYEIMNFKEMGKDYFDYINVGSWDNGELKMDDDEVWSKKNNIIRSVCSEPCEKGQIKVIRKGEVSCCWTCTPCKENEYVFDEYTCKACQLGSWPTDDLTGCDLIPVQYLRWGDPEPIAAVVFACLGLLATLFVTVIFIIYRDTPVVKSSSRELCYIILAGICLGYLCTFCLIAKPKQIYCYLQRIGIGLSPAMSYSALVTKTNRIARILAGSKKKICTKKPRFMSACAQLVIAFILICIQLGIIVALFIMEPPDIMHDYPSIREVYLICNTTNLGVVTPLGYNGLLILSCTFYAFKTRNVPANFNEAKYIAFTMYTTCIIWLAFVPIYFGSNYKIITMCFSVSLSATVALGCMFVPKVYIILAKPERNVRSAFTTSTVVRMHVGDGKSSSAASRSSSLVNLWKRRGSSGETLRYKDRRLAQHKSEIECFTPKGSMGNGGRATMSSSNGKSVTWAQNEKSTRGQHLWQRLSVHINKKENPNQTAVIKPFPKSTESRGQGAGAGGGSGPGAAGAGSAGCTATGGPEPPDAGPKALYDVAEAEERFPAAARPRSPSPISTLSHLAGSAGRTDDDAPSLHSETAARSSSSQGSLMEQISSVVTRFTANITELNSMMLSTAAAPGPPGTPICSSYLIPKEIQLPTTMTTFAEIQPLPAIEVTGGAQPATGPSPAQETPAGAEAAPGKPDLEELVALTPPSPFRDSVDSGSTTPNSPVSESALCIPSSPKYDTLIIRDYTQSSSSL
- assay_comment: Positive allosteric modulator activity at mGluR5 in mouse BV2 cells assessed as inhibition of nitric oxide production pre-treated 1 hr before lipopolysaccharide stimulation and measured 24 hrs post lipopolysaccharide stimulation by Griess reagent assay
- Assay type: cell-based, BV-2
- condition_description: read-out: IC50
# strict inequality: IC50 < 60 µM yields 1 (yes), everything else yields 0 (no)

cpd_smiles	group_label
O=C(Nc1nc2ccccc2[nH]1)c1cc(C(F)(F)F)ccc1C(F)(F)F	1 (yes)
O=C(Nc1nc2ccccc2[nH]1)C1CCCCC1	1 (yes)
O=C(Nc1nc2ccccc2[nH]1)c1ccccc1Cl	0 (no)
O=C(Nc1nc2ccccc2[nH]1)c1ccc([N+](=O)[O-])cc1	1 (yes)
O=C(Nc1nc2ccccc2[nH]1)c1ccccc1F	1 (yes)

Problem: Check if IC50 falls below 60 µM for `O=C(Nc1nc2ccccc2[nH]1)c1cccc(Cl)c1` .
Result: 1 (yes)

Problem: Check if IC50 falls below 60 µM for `O=C(Nc1nc2ccccc2[nH]1)c1cccc([N+](=O)[O-])c1` .
Result: 1 (yes)

Problem: Check if IC50 falls below 60 µM for `O=C(Nc1nc2ccccc2[nH]1)C1CCC1` .
Result: 1 (yes)

Problem: Check if IC50 falls below 60 µM for `O=C(Sc1nc2ccccc2[nH]1)c1cccc(Cl)c1` .
Result: 0 (no)

Problem: Check if IC50 falls below 60 µM for `O=C(Nc1nc2ccccc2[nH]1)c1cc(Cl)cc(Cl)c1` .
Result: 1 (yes)

Problem: Check if IC50 falls below 60 µM for `COc1cc(C(=O)Nc2nc3ccccc3[nH]2)ccc1S(N)(=O)=O` .
Result: 0 (no)

Problem: Check if IC50 falls below 60 µM for `O=C(Nc1nc2ccccc2[nH]1)c1ccccc1C(F)(F)F` .
Result: 0 (no)

Problem: Check if IC50 falls below 60 µM for `COc1cccc(C(=O)Nc2nc3ccccc3[nH]2)c1` .
Result: 0 (no)

Problem: Check if IC50 falls below 60 µM for `O=C(/C=C/c1ccncc1)Nc1nc2ccccc2[nH]1` .
Result: 1 (yes)

Problem: Check if IC50 falls below 60 µM for `O=C(Nc1nc2ccccc2[nH]1)c1ccc(Cl)cc1` .
Result: 1 (yes)

---

- assay_comment: Cytotoxicity against mouse BV2 cells by CytoTox96 non-radioactive cytotoxicity assay
- Format: cell-based, BV-2
- condition_description: BV2 cells, read-out: MNCC
measurement_name: MNTC (mM)
Only the number, expressed in mM, is required.

Check out these entries, answers already filled in.
cpd_smiles	unit_symbol	MNTC
COc1cc(C(=O)Nc2nc3ccccc3[nH]2)ccc1S(N)(=O)=O	mM	1
O=C(Nc1nc2ccccc2[nH]1)c1cccc([N+](=O)[O-])c1	mM	1
O=C(Nc1nc2ccccc2[nH]1)c1cc(Cl)ccc1Cl	mM	0.1
Fc1cccc(/C=N/N=C/c2cccc(F)c2)c1	mM	0.5
O=C(Nc1nc2ccccc2[nH]1)c1ccccc1Cl	mM	0.3

Problem: Fill in the blank: the reported MNTC of `O=C(Sc1nc2ccccc2[nH]1)c1cccc(Cl)c1` is ____.
Result: 1

Problem: Fill in the blank: the reported MNTC of `O=C(Nc1nc2ccccc2[nH]1)c1ccccc1` is ____.
Result: 1

Problem: Fill in the blank: the reported MNTC of `O=C(Nc1nc2ccccc2[nH]1)c1ccc(F)cc1` is ____.
Result: 1

Problem: Fill in the blank: the reported MNTC of `O=C(Nc1nc2ccccc2[nH]1)c1cccc(C(F)(F)F)c1` is ____.
Result: 0.2

Problem: Fill in the blank: the reported MNTC of `O=C(Nc1nc2ccccc2[nH]1)c1cc(Cl)cc(Cl)c1` is ____.
Result: 0.8

Problem: Fill in the blank: the reported MNTC of `O=C(Nc1nc2ccccc2[nH]1)c1ccc(C(F)(F)F)cc1` is ____.
Result: 1

Problem: Fill in the blank: the reported MNTC of `O=C(Nc1nc2ccccc2[nH]1)C1CCC1` is ____.
Result: 0.06

Problem: Fill in the blank: the reported MNTC of `O=C(Nc1nc2ccccc2[nH]1)c1ccc(Cl)cc1` is ____.
Result: 1
